This collection of values is drawn from patent US11168086B2.

Test system: HBV
ASSAY_PROTOCOL: HBV inhibition assay: anti-HBV activity in vitro in HepG2.2.15 cells (extracellular HBV DNA by qPCR)
Type: cell-based
REPORTED_CONDITIONS: Hepatitis B virus, 120 h, five days after compound treatment, extracellular HBV DNA in culture supernatant by qPCR, concentration at which HBV replication is inhibited by 50%
MEASURED_PROPERTY: EC50 (µM)
# output: bare number, implied unit µM

Study these solved cases before continuing.
C[C@H]1Cn2ncc(N3C[C@@H](O)CC3=O)c2CN1C(=O)Nc1cc(F)c(F)c(F)c1 [Example 377]; 0.081
C[C@H]1Cn2ncc(N3CC(N(C)C(=O)c4ncco4)CC3=O)c2CN1C(=O)Nc1cc(F)c(F)c(F)c1 (stereo partly shown) [Example 318]; 0.045
C[C@@H]1CN(C(=O)C2CC(=O)N(c3cnn4c3CN(C(=O)Nc3cc(F)c(F)c(F)c3)[C@@H](C)C4)C2)C[C@H](C)O1 (stereo partly shown) [Example 397]; 0.06
CC1CN(C(=O)Nc2ccc(F)c(Cl)c2)Cc2c(-c3ccc(F)cc3)cnn21 (stereo not shown) [Example 230]; 0.052
C[C@H]1Cn2ncc(N3C(=O)COC[C@@H]3C)c2CN1C(=O)Nc1cc(F)c(F)c(F)c1 [Example 372]; 0.05
C[C@H]1Cn2ncc(N3CC(C(=O)N4CCC(F)(F)C4)CC3=O)c2CN1C(=O)Nc1cc(F)c(F)c(F)c1 (stereo partly shown) [Example 398]; 0.08

Alright, here's another molecule for you.
// map COC1CC(=O)N(c2cnn3c2CN(C(=O)Nc2ccc(F)c(Cl)c2)[C@@H](C)C3)C1 (stereo partly shown) [Example 238] to recorded EC50 (system: HBV)
0.021
